test system: HepG2; experiment: Antiproliferative activity against human HepG2 cells assessed as reduction in cell viability incubated for 72 hrs by MTT assay; type: functional, cell-based; details: HepG2, 72 h
Readout: IC50 (µM)
The reply should contain only the number, in µM.

What does the data say about its IC50? Entry: COc1cc(NC(C)CCCNC(=O)NCc2nccc3c2[nH]c2ccccc23)c2ncccc2c1 (stereo not drawn)
0.69

What does the data say about its IC50? Entry: COc1cc(NC(C)CCCNC(=O)NCCn2c3cc(OC)ccc3c3ccnc(C)c32)c2ncccc2c1 (stereo not drawn)
12.3

What does the data say about its IC50? Entry: `O=c1[nH]cc(F)c(=O)[nH]1`
5.46

What does the data say about its IC50? Entry: COc1cc(NC(C)CCCNC(=O)NCCOc2ccc3[nH]c4c(C)nccc4c3c2)c2ncccc2c1 (stereo not drawn)
10.9

====

test system: dsDNA; assay: Binding affinity to double stranded DNA (unknown origin) assessed as increase in fluorescence intensity by fluorescence quenching analysis; format: nucleic-acid assay
Active and inactive are the calls of the source. No cut-off for these calls is given here.
Respond only with the outcome that fits, drawn from active, inactive

Look over these answered cases.
INSERT INTO measurements (compound, assigned_category) VALUES
  ('COc1cc(NC(C)CCCn2cc(Cn3c4cc(OC)ccc4c4ccnc(C)c43)nn2)c2ncccc2c1 (centres undefined)', 'active'),
  ('COc1cc(NC(C)CCCn2cc(COc3ccc4[nH]c5c(C)nccc5c4c3)nn2)c2ncccc2c1 (centres undefined)', 'inactive'),
  ('COc1cc(NC(C)CCCNC(=O)NCc2nccc3c2[nH]c2ccccc23)c2ncccc2c1 (centres undefined)', 'active');

Name the outcome recorded for COc1cc(NC(C)CCCn2cc(COc3ccc4[nH]c5c(C)nccc5c4c3)nn2)c2ncccc2c1-c1c(OC)cc(NC(C)CCCn2cc(COc3ccc4[nH]c5c(C)nccc5c4c3)nn2)c2ncccc12 (centres undefined) in the assay.
active

====

tested on: Calf thymus DNA; assay: Binding affinity to calf thymus DNA assessed as binding constant by UV-Visible absorption spectroscopic analysis; details: Bos taurus
Item-by-item account of log Ks
Provide a numeric answer; units are not to be included.

The examples below pair each entry with its known result.
INSERT INTO measurements (compound, quantitative_result) VALUES
  ('COc1cc(NC(C)CCCn2cc(COc3ccc4[nH]c5c(C)nccc5c4c3)nn2)c2ncccc2c1 (centres undefined)', 3.4),
  ('COc1cc(NC(C)CCCNC(=O)NCc2nccc3c2[nH]c2ccccc23)c2ncccc2c1 (centres undefined)', 5.5),
  ('COc1cc(NC(C)CCCn2cc(COc3ccc4[nH]c5c(C)nccc5c4c3)nn2)c2ncccc2c1-c1c(OC)cc(NC(C)CCCn2cc(COc3ccc4[nH]c5c(C)nccc5c4c3)nn2)c2ncccc12 (centres undefined)', 5.8);

# next compound below
What does the data say about its log Ks? Entry: COc1cc(NC(C)CCCn2cc(Cn3c4cc(OC)ccc4c4ccnc(C)c43)nn2)c2ncccc2c1 (centres undefined)
5.5

====

tested on: RNA; test: Binding affinity to double stranded RNA (unknown origin) assessed as increase in fluorescence intensity by fluorescence quenching analysis; type: nucleic-acid assay
Active and inactive are the calls of the source. The rule behind the calls is not given here.
Respond only with the outcome that fits, drawn from true (1) (active), false (0) (inactive)

Look over these answered cases.
INSERT INTO assay_data (compound, assigned_category) VALUES
  ('COc1cc(NC(C)CCCn2cc(COc3ccc4[nH]c5c(C)nccc5c4c3)nn2)c2ncccc2c1-c1c(OC)cc(NC(C)CCCn2cc(COc3ccc4[nH]c5c(C)nccc5c4c3)nn2)c2ncccc12 (centres undefined)', 'true (1)'),
  ('COc1cc(NC(C)CCCNC(=O)NCc2nccc3c2[nH]c2ccccc23)c2ncccc2c1 (centres undefined)', 'true (1)'),
  ('COc1cc(NC(C)CCCn2cc(COc3ccc4[nH]c5c(C)nccc5c4c3)nn2)c2ncccc2c1 (centres undefined)', 'false (0)');

Name the outcome recorded for COc1cc(NC(C)CCCn2cc(Cn3c4cc(OC)ccc4c4ccnc(C)c43)nn2)c2ncccc2c1 (centres undefined) in the assay.
true (1)
